As shown below, each of these molecules has a reported number of E. coli bacteria value.
# Test system: Standard strain E. coli
# protocolSummary: Sterilization effectiveness on E. coli (number of bacteria over time)
# Type: cell-based
# reportedConditions: 0 min

- molecule: "O=C(O)CC(O)C(=O)O (stereo not drawn) [SAL + BROTH (MA 0.5%), malic acid]"
  unitText: "log10 CFU/ml"
  number of E. coli bacteria: 8.61
- molecule: "O=C(O)CC(O)(CC(=O)O)C(=O)O [SAL + BROTH (CA 2.0%), citric acid]"
  unitText: "log10 CFU/ml"
  number of E. coli bacteria: 8.72
- molecule: "O=C(O)CC(O)C(=O)O (stereo not drawn) [SAL + BROTH (MA 2.0%), malic acid]"
  unitText: "log10 CFU/ml"
  number of E. coli bacteria: 8.61
- molecule: "O=C(O)CC(O)(CC(=O)O)C(=O)O [SAL + BROTH (CA 1.0%), citric acid]"
  unitText: "log10 CFU/ml"
  number of E. coli bacteria: 8.72
- molecule: "O=C(O)CC(O)(CC(=O)O)C(=O)O [SAL + BROTH (CA 0.5%), citric acid]"
  unitText: "log10 CFU/ml"
  number of E. coli bacteria: 8.72
- molecule: "O=C(O)CC(O)C(=O)O (stereo not drawn) [SAL + BROTH (MA 1.0%), malic acid]"
  unitText: "log10 CFU/ml"
  number of E. coli bacteria: 8.61
